# Assay Details: AUC (0 to t) in Sprague-Dawley rat at 15 mg/kg, po
# Format: ADME, organism-based
# Set-up: dose 15 mg/kg, route oral
# Conditions: plasma
Endpoint Name: AUC(0-t) (ng·h/mL)
Give the value, in units of ng·h/mL, as a plain number.

(Q) Suppose we examine the molecule O=c1c2ccccc2sc2cc(OCC(O)CCl)cc(O)c12 (stereo unspecified) ; what AUC(0-t) value has been reported?
(A) 23

====

# Assay Details: Tmax in Sprague-Dawley rat at 15 mg/kg, po
# Format: ADME, organism-based
# Design: dose 15 mg/kg, route oral
# Conditions: in vivo
Endpoint Name: Tmax

(Q) Please give the measured Tmax for this compound: O=c1c2ccccc2sc2cc(OCC(O)CCl)cc(O)c12 (stereo unspecified)
(A) 12.6 min
